Attribution: PubChem BioAssay AID1159580

measurement_protocol: chemical genetic growth profiling, strain panel (AID 1159580);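 also: tested at 20 µM; growth read once vehicle control cultures reached saturation at 30 °C; 1 = growth at the plate median or of vehicle wells; lower values mean less growth of the strain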
condition_details: S. cerevisiae deletion strains, growth OD, locus YER133W, strain GLC7
Out of some 5,500 compounds screened, about 2,000 (36%) were called active. About 18% were inconclusive and are not listed. Rule as the data show it: active = normalized growth mostly below about 0.91 (no sharp cut-off); inconclusive = no clear call, values can overlap the other calls; inactive = mostly above about 0.92. The list shows a part of the results.
Hello, when you answer, please use one of the following outcomes: active, inactive

Please let me know the test result on file for "N/C(CSc1ccc(Cl)cc1)=N/OC(=O)c1ccc(C(F)(F)F)cc1" .
inactive

Please let me know the test result on file for "Clc1ccc(-c2csc(Nc3ccccc3)n2)s1" .
active

Please let me know the test result on file for "Cc1nc(-c2ccc(C(F)(F)F)cn2)[nH]c(=O)c1Cl" .
inactive

Please let me know the test result on file for "COc1cc(NC(=S)Nc2ccccc2OC(F)(F)F)cc(C(F)(F)F)c1" .
inactive

---

measurement_protocol: chemical genetic growth profiling, strain panel (AID 1159580);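 also: tested at 20 µM; growth read once vehicle control cultures reached saturation at 30 °C; 1 = growth at the plate median or of vehicle wells; lower values mean less growth of the strain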
condition_details: S. cerevisiae deletion strains, growth OD, locus YDL005C, strain med2
About 2,000 (36%) of roughly 5,500 compounds were called active. Not shown: some 18% with an inconclusive outcome. Cut-off read from the data, not from the text of the source: active = normalized growth mostly below about 0.91 (no sharp cut-off); inconclusive = no clear call, values can overlap the other calls; inactive = mostly above about 0.92. Some of the results follow.
Hello, when you answer, please use one of the following outcomes: active, inactive

Worked examples, 6 compounds total:
- compound: "CC(=O)O[C@H]1C[C@H](O[C@H]2[C@@H](O)C[C@H](O[C@H]3[C@@H](O)C[C@H](O[C@H]4CC[C@@]5(C)C(CCC6C5C[C@@H](O)[C@]5(C)[C@@H](C7=CC(=O)OC7)CC[C@]65O)C4)O[C@@H]3C)O[C@@H]2C)O[C@H](C)[C@H]1O[C@@H]1O[C@H](CO)[C@@H](O)[C@H](O)[C@H]1O (stereo not given in full)"
  classification: "inactive"
- compound: "NC(=O)CC[C@@H](N)C(=O)O"
  classification: "inactive"
- compound: "N[C@@H]1CONC1=O"
  classification: "inactive"
- compound: "O=C1CCc2cc(OCCCCc3nnnn3C3CCCCC3)ccc2N1"
  classification: "inactive"
- compound: "CCCCC1C(=O)N(c2ccccc2)N(c2ccccc2)C1=O"
  classification: "inactive"
- compound: "CC1(C)O[C@@H]2CC3C4C[C@H](F)C5=CC(=O)C=CC5(C)C4C(O)CC3(C)[C@]2(C(=O)CO)O1 (stereo not given in full)"
  classification: "inactive"

Please let me know the test result on file for "C[n+]1cc2c3c(ccc2c2ccc4cc5c(cc4c21)OCO5)OCO3" .
active

Please let me know the test result on file for "C/C(=C\C(=O)OCCCCCCCCC(=O)O)C[C@@H]1OC[C@H](C[C@@H]2O[C@H]2[C@@H](C)[C@H](C)O)[C@@H](O)[C@H]1O" .
inactive

Please let me know the test result on file for "CCCCCCCCCCCCCCCC[n+]1ccccc1" .
active

Please let me know the test result on file for "S=c1ccss1" .
inactive

---

measurement_protocol: chemical genetic growth profiling, strain panel (AID 1159580);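 also: tested at 20 µM; growth read once vehicle control cultures reached saturation at 30 °C; 1 = growth at the plate median or of vehicle wells; lower values mean less growth of the strain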
condition_details: S. cerevisiae deletion strains, growth OD, locus YML120C, strain ndi1, active compounds read low
In all, about 5,500 compounds went through this assay and about 2,000 (36%) were called active. About 18% were inconclusive and are not listed. This is one part of the list.
property_measured: normalized growth
Hey, just send me the number, nothing else.

Examples with their reported normalized growth follow.
- compound: "C[N+]1(CCCCC[N+]2(C)CCCC2)CCCC1"
  normalized growth: 0.99
- compound: "COc1cc([C@@H]2c3cc4c(cc3C(O[C@@H]3O[C@@H]5CO[C@@H](c6cccs6)OC5[C@H](O)[C@H]3O)C3COC(=O)[C@@H]32)OCO4)cc(OC)c1O (stereo partly specified)"
  normalized growth: 1.02
- compound: "[N-]=[N+]=CC(=O)OCC(N)C(=O)O (stereo unspecified)"
  normalized growth: 1
- compound: "CCN1CCN(c2cc3c(cc2F)c(=O)c(C(=O)O)cn3C2CC2)CC1"
  normalized growth: 1.01
- compound: "CN(N=O)C(=O)N[C@@H]1[C@@H](O)[C@H](O)[C@@H](CO)O[C@@H]1O"
  normalized growth: 0.986
- compound: "COC(=O)C1=C(C)NC(C)=C(C(=O)OCCN(C)Cc2ccccc2)C1c1cccc([N+](=O)[O-])c1 (stereo unspecified)"
  normalized growth: 1.02
- compound: "CC[C@]12C=CCN3CC[C@@]4(c5ccc(OC)cc5N(C)C4[C@@](O)(C(=O)OC)[C@@H]1OC(C)=O)[C@@H]32 (stereo partly specified)"
  normalized growth: 0.994
- compound: "COC(=O)C1=C(C)NC(C)=C(C(=O)OCC(C)C)C1c1ccccc1[N+](=O)[O-] (stereo unspecified)"
  normalized growth: 0.978
- compound: "Cc1cc2cc3c(C)cc(=O)oc3c(C)c2o1"
  normalized growth: 0.996
- compound: "O=C1CN2Cc3c(ccc(Cl)c3Cl)N=C2N1"
  normalized growth: 0.996

Can you share its normalized growth? I mean this compound: "COc1cc2cc[n+]3cc4c(OC)c(OC)ccc4cc3c2cc1OC"
0.978

Can you share its normalized growth? I mean this compound: "COC(=O)C1=C(C)NC(C)=C(C(=O)OC)C1c1ccccc1[N+](=O)[O-]"
0.976

Can you share its normalized growth? I mean this compound: CC(=O)CC(c1ccccc1)c1c(O)c2ccccc2oc1=O (stereo unspecified)
1

Can you share its normalized growth? I mean this compound: "COc1ccc(-c2cc(=O)c3c(O)c(OC)c(OC)c(OC)c3o2)cc1"
0.992

Can you share its normalized growth? I mean this compound: "CCCN1C[C@H](CSC)C[C@@H]2c3cccc4[nH]cc(c34)C[C@H]21"
1.02

Can you share its normalized growth? I mean this compound: "O=C(O)c1nc2cc(Cl)c(Cl)cc2[nH]c1=O"
1
